# Assay protocol: molar heat capacity at constant pressure
# Experimental context: 298.15 K; 101.33 kPa; Crystal; Small sample (50 mg) DSC
Property measured: molar heat capacity at constant pressure (J/K/mol)
Numeric only. Scale: J/K/mol

Nc1ccc(S(N)(=O)=O)cc1 [4-aminobenzenesulfonamide]    199.76
Cc1ccccc1S(N)(=O)=O [o-toluenesulfonamide]    193.48

q: Can you look up the measured molar heat capacity at constant pressure of NS(=O)(=O)c1ccccc1 [benzenesulfonamide] for me?
a: 172.91

q: Can you look up the measured molar heat capacity at constant pressure of Cc1ccc(S(N)(=O)=O)cc1 [p-toluenesulfonamide] for me?
a: 205.46

q: Can you look up the measured molar heat capacity at constant pressure of Nc1ccccc1S(N)(=O)=O [2-aminobenzenesulfonamide] for me?
a: 173.93
